This collection of values is drawn from patent US20220273659A1.

target: CDK6 (Homo sapiens); experiment: In vitro kinase inhibition IC50, luminescence (ADP Glo), retinoblastoma substrate; settings: read-out: CDK6/D1 IC50
pIC50: −log10 of the molar value.
quantityKind: pIC50

compound="N#Cc1cc2cnc(Nc3ccc4c(c3)CCCNC4=O)nc2n(C2CCCC2)c1=O [Compound No. 82]" inequalityoperator== endpointvalue=6.88
compound="CCC(C)n1c(=O)c(C#N)cc2cnc(NC3CCN(S(C)(=O)=O)CC3)nc21 (stereo not shown) [Compound No. 351]" inequalityoperator== endpointvalue=7.82
compound="N#Cc1cc2cnc(Nc3ccc4c(c3)C(=O)NCCC4)nc2n(C2CCCC2)c1=O [Compound No. 79]" inequalityoperator== endpointvalue=7.42
compound="CCOCCCn1c(=O)c(C#N)cc2cnc(Nc3ccc4c(c3)CCNC4)nc21 [Compound No. 343]" inequalityoperator=< endpointvalue=6.70

* * *

test system: MCF-7 breast adenocarcinoma cells; test: Cancer cell proliferation assay, single agent (cell viability); type: cell-based; settings: Homo sapiens, MCF7, Table 4; Rb positive; treatment 144 Hr with medium change at 72 Hr; Cell Titer-Glo or resazurin
pIC50: −log10 of the molar value.
The reader will find reported pIC50 values listed item by item below.
quantityKind: pIC50

molecule=CN1CCN(c2ccc(Nc3ccc4cc(C#N)c(=O)n(C5CCCC5)c4n3)cc2)CC1 endpointvalue=5.61
molecule=N#Cc1cc2cnc(Nc3ccc(N4CCNCC4)cc3F)nc2n(C2CCCC2)c1=O endpointvalue=6.27
molecule=N#Cc1cc2cnc(Nc3ccc(N4CCNCC4=O)c(F)c3)nc2n(C2CCCC2)c1=O endpointvalue=5.83
molecule=CCOCCCn1c(=O)c(C#N)cc2cnc(Nc3ccc4c(c3)CCNC4)nc21 endpointvalue=5.89
molecule=N#Cc1cc2cnc(Nc3ccc(C4CCNCC4)c(F)c3)nc2n(C2CCCC2)c1=O endpointvalue=6.74
molecule=CN1CCC(c2ccc(Nc3ncc4cc(C#N)c(=O)n(C5CCCC5)c4n3)cc2F)CC1 endpointvalue=6.56
molecule=CN1CCN(C(=O)c2cccc(Nc3ncc4cc(C#N)c(=O)n(C5CCCC5)c4n3)c2)CC1 endpointvalue=5.22
molecule=COCCN1CCc2cc(Nc3ncc4cc(C#N)c(=O)n(C5CCCC5)c4n3)ccc2C1 endpointvalue=6.22
molecule=CS(=O)(=O)N1CCC[C@H](Nc2ncc3cc(C#N)c(=O)n(C4CCCC4)c3n2)C1 endpointvalue=5.48
molecule="CS(=O)(=O)N1CCC(Nc2ncc3cc(C#N)c(=O)n(C4CCC(F)(F)C4)c3n2)CC1 (racemic)" endpointvalue=5.50
molecule=N#Cc1cc2cnc(NC3CCN(S(=O)(=O)CC(F)(F)F)CC3)nc2n(C2CCCC2)c1=O endpointvalue=5.55
molecule=CN(C)Cc1c[nH]c2cc(Nc3ncc4cc(C#N)c(=O)n(C5CCCC5)c4n3)ccc12 endpointvalue=6.62
molecule=N#Cc1cc2cnc(Nc3ccc(N4CCNCC4)c(C(F)(F)F)c3)nc2n(C2CCCC2)c1=O endpointvalue=6.81
molecule=CN(C)CC(=O)N1CCC(n2cc(Nc3ncc4cc(C#N)c(=O)n(C5CCCC5)c4n3)cn2)CC1 endpointvalue=6.08
molecule=Cc1ccc(S(=O)(=O)N2CCC(Nc3ncc4cc(C#N)c(=O)n(C5CCCC5)c4n3)CC2)cc1 endpointvalue=6.59

* * *

biological target: CDK4 (Homo sapiens); experiment: In vitro kinase inhibition IC50, luminescence (ADP Glo), retinoblastoma substrate; conditions: read-out: CDK4/D1 IC50
Sequence (P11802 whole entry): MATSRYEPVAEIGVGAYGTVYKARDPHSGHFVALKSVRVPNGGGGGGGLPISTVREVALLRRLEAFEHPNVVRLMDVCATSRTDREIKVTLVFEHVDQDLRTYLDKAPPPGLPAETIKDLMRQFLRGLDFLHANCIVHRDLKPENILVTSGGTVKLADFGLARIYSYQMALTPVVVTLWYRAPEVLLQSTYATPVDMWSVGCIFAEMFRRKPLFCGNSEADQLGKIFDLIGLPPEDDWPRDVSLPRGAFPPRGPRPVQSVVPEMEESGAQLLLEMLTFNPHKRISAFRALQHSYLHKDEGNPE
Sequence (P24385 whole entry partner): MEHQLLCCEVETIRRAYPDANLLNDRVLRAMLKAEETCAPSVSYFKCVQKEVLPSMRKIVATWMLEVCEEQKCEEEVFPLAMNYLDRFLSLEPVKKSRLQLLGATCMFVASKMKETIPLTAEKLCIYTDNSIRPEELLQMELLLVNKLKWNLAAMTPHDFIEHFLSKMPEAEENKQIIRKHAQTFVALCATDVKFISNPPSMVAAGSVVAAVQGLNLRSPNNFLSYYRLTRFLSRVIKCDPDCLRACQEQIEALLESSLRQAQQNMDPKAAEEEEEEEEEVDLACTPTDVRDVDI
pIC50: −log10 of the molar value. Counter-ions that a name gives are not always drawn.
Below: a set of entries, each annotated with reported pIC50.
quantityKind: pIC50

compound=N#Cc1cc2cnc(NC3CCN(S(=O)(=O)c4ccc(F)cc4)CC3)nc2n(C2CCCC2)c1=O inequalityoperator== endpointvalue=8.89
compound=N#Cc1cc2cnc(Nc3ccc4c(c3)CCNC4)nc2n(CC2CCCCC2)c1=O inequalityoperator=< endpointvalue=6.76
compound=N#Cc1cc2cnc(NC3CCN(S(=O)(=O)CC(F)(F)F)CC3)nc2n(C2CCCC2)c1=O inequalityoperator== endpointvalue=8.36
compound=CS(=O)(=O)N1CCC(Nc2ncc3cc(C#N)c(=O)n([C@@H]4C[C@H]5CC[C@@H]4C5)c3n2)CC1 inequalityoperator== endpointvalue=8.30
compound="CN(C)C1Cc2ccc(Nc3ncc4cc(C#N)c(=O)n(C5CCCC5)c4n3)cc2C1 (stereo not drawn)" inequalityoperator== endpointvalue=8.02
compound="CS(=O)(=O)N1CCC(Nc2ncc3cc(C#N)c(=O)n(C4COCC4O)c3n2)CC1 (stereo not drawn)" inequalityoperator=< endpointvalue=6.70
compound=CS(=O)(=O)N1CCC(Nc2ncc3cc(C#N)c(=O)n([C@H]4CCC(F)(F)C4)c3n2)CC1 inequalityoperator== endpointvalue=7.62
compound="N#Cc1cc2cnc(Nc3ccc(N4CCN5CCCCC5C4)c(F)c3)nc2n(C2CCCC2)c1=O (stereo not drawn)" inequalityoperator== endpointvalue=8.22
compound=N#Cc1cc2cnc(Nc3ccc4c(c3)CCCNC4=O)nc2n(C2CCCC2)c1=O inequalityoperator=< endpointvalue=6.70
compound=C[C@@]1(O)CCC[C@H]1n1c(=O)c(C#N)cc2cnc(NC3CCN(S(C)(=O)=O)CC3)nc21 inequalityoperator== endpointvalue=7.52
compound=N#Cc1cc2ccc(Nc3ccc(N4CCNCC4)cc3)nc2n(C2CCCC2)c1=O inequalityoperator=< endpointvalue=6.70
compound=CN1CCn2nc(Nc3ncc4cc(C#N)c(=O)n(C5CCCC5)c4n3)cc2C1 inequalityoperator== endpointvalue=7.41
compound=N#Cc1cc2cnc(Nc3ccc4c(n3)CCNC4)nc2n(C2CCCC2)c1=O inequalityoperator== endpointvalue=7.01
compound=N#Cc1cc2cnc(Nc3ccc(C4CCNCC4)cc3)nc2n(C2CCCC2)c1=O inequalityoperator== endpointvalue=8.19
compound=CCS(=O)(=O)N1CCC(Nc2ncc3cc(C#N)c(=O)n(C4CCCC4)c3n2)CC1 inequalityoperator== endpointvalue=8.57
compound=CN1CCN(C(=O)c2cccc(Nc3ncc4cc(C#N)c(=O)n(C5CCCC5)c4n3)c2)CC1 inequalityoperator=< endpointvalue=6.70
compound=N#Cc1cc2cnc(Nc3ccc4c(c3)CCNC4)cc2n(C2CCCC2)c1=O inequalityoperator== endpointvalue=6.88
compound="CS(=O)(=O)N1CCC(Nc2ncc3cc(C#N)c(=O)n([C@H]4C[C@@H]5CC[C@H]4C5)c3n2)CC1 [Compound No. 387]" inequalityoperator== endpointvalue=7.70
compound=Cc1ccc(S(=O)(=O)N2CCC(Nc3ncc4cc(C#N)c(=O)n(C5CCCC5)c4n3)CC2)cc1 inequalityoperator== endpointvalue=8.82
compound="N#Cc1cc2cnc(Nc3ccc4c(c3)CCNC4)nc2n(C2CCC2)c1=O [Compound No. 91, hydrochloride]" inequalityoperator== endpointvalue=7.08
compound=CCC(CC)n1c(=O)c(C#N)cc2cnc(Nc3ccc4c(c3)CCNC4)nc21 inequalityoperator== endpointvalue=6.75
compound="N#Cc1cc2cnc(Nc3ccc(N4CCNCC4)cc3)nc2n(C2CCCc3ccccc32)c1=O (stereo not drawn)" inequalityoperator== endpointvalue=8.70
compound=CN(C)CCN1CCC(n2ccc(Nc3ncc4cc(C#N)c(=O)n(C5CCCC5)c4n3)cc2=O)CC1 inequalityoperator== endpointvalue=7.82
compound=N#Cc1cc2cnc(Nc3ccc4c(c3)C(=O)NC4)nc2n(C2CCCC2)c1=O inequalityoperator=< endpointvalue=6.70
compound="CN(C)CC1Cc2ccc(Nc3ncc4cc(C#N)c(=O)n(C5CCCC5)c4n3)cc2C(=O)N1 (stereo not drawn)" inequalityoperator=< endpointvalue=6.70
compound=COCCn1cc(Nc2ncc3cc(C#N)c(=O)n(C4CCCC4)c3n2)cn1 inequalityoperator=< endpointvalue=6.74
compound=CS(=O)(=O)N1CC[C@H](Nc2ncc3cc(C#N)c(=O)n(C4CCCC4)c3n2)[C@H](F)C1 inequalityoperator== endpointvalue=8.77
compound=N#Cc1cc2cnc(NC3CCN(S(=O)(=O)C(F)F)CC3)nc2n(C2CCCC2)c1=O inequalityoperator== endpointvalue=8.85
compound="CS(=O)(=O)N1CCC(Nc2ncc3cc(C#N)c(=O)n(C4CCC(F)(F)C4)c3n2)CC1 (racemic)" inequalityoperator== endpointvalue=7.40
compound=N#Cc1cc2cnc(Nc3ccc4c(c3)CNCCC4)nc2n(C2CCCC2)c1=O inequalityoperator== endpointvalue=7.48

* * *

molecular target: CDK6 (Homo sapiens, UniProt Q00534); experiment: In vitro kinase inhibition IC50, luminescence (ADP Glo), retinoblastoma substrate; details: read-out: CDK6/D1 IC50
Sequence (Q00534 whole entry): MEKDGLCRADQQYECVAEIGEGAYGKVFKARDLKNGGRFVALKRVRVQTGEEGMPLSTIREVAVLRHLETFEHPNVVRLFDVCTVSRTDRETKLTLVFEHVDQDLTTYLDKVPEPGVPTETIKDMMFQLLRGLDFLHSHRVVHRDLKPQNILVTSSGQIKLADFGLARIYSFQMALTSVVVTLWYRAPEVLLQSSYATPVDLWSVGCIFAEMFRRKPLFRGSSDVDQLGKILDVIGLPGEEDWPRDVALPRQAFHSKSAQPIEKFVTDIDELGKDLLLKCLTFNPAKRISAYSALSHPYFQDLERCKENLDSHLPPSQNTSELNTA
Sequence (P24385 whole entry partner): as the sequence (P24385 whole entry partner) above
Measured IC50 accompanies every entry in the list below.
quantityKind: IC50 (nM)

compound=N#Cc1cc2cnc(Nc3ccc(S(N)(=O)=O)cc3)nc2n(C2CCCC2)c1=O unitssymbol=nM endpointvalue=11
compound="CCC(C)n1c(=O)c(C#N)cc2cnc(Nc3ccc4c(c3)CCNC4)nc21 (centres unmarked)" unitssymbol=nM endpointvalue=22
compound=CCC(CC)n1c(=O)c(C#N)cc2cnc(Nc3ccc4c(c3)CCNC4)nc21 unitssymbol=nM endpointvalue=25
compound=COCCS(=O)(=O)N1CCC(Nc2ncc3cc(C#N)c(=O)n(C4CCCC4)c3n2)CC1 unitssymbol=nM endpointvalue=6
compound=CN(C)S(=O)(=O)N1CCC(Nc2ncc3cc(C#N)c(=O)n(C4CCCC4)c3n2)CC1 unitssymbol=nM endpointvalue=4.5
compound=CS(=O)(=O)N1CCC(Nc2ncc3cc(C#N)c(=O)n(C4CCCC4)c3n2)CC1 unitssymbol=nM endpointvalue=4
compound=CCCCCc1ccc(S(=O)(=O)N2CCC(Nc3ncc4cc(C#N)c(=O)n(C5CCCC5)c4n3)CC2)cc1 unitssymbol=nM endpointvalue=120
compound=CN1CCC(n2cc(Nc3ncc4cc(C#N)c(=O)n(C5CCCC5)c4n3)cn2)CC1 unitssymbol=nM endpointvalue=36
